- tested on: Somatostatin receptor type 3 (Homo sapiens, UniProt P32745)
- Sequence (P32745 whole entry): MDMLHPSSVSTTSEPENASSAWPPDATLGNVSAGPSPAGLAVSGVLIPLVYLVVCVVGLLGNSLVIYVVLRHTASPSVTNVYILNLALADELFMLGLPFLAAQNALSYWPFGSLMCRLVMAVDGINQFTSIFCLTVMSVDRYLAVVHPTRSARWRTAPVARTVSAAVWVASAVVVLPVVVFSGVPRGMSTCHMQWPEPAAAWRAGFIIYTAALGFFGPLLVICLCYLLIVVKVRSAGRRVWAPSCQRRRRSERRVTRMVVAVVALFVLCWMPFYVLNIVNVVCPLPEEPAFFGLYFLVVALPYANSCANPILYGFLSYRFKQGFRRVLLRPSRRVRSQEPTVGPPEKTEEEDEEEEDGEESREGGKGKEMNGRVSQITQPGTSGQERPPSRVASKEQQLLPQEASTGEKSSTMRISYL
- measurement notes: Binding affinity towards human Somatostatin receptor type 3 (sst3) using Tyr11-[125I]-SRIF as radioligand was determined in CHO cells
Positions of bridges follow the written chain, without caps; N, C: chain ends. Residues, ends and D or L forms follow the SMILES beside them.
endpoint label: pKi
Give bare numbers, as −log10 of the molar value.

The cases that follow already have their pKi on record.
Qu. pKi for NCCCCCNC(=O)O[C@@H]1C[C@H]2C(=O)N[C@@H](Cc3ccccc3)C(=O)N[C@H](Cc3c[nH]c4ccccc34)C(=O)N[C@@H](CCCCN)C(=O)N[C@@H](Cc3ccc(OCc4ccccc4)cc3)C(=O)N[C@@H](Cc3ccccc3)C(=O)N2C1 ?
Ans. 8.70

Qu. pKi for C[C@H](N)C(=O)NCC(=O)N[C@H]1CSSC[C@@H](C(N)=O)NC(=O)[C@H](C)NC(=O)[C@H]([C@@H](C)O)NC(=O)[C@H](Cc2ccccc2)NC(=O)[C@H]([C@@H](C)O)NC(=O)[C@H](CCCCN)NC(=O)[C@H](Cc2c[nH]c3ccccc23)NC(=O)[C@H](Cc2ccccc2)NC(=O)[C@H](Cc2ccccc2)NC(=O)[C@H](CC(N)=O)NC(=O)[C@H](CCCCN)NC1=O (H-AGCKNFFWKTFTAC-NH2; disulfide 3-14) ?
Ans. 9.20

In the following, a different molecule is considered.
Qu. pKi for C[C@H](N)C(=O)NCC(=O)N[C@H]1CSSC[C@@H](C(N)=O)NC(=O)[C@H](CO)NC(=O)[C@H]([C@@H](C)O)NC(=O)[C@H](Cc2ccccc2)NC(=O)[C@H]([C@@H](C)O)NC(=O)[C@H](CCCCN)NC(=O)[C@H](Cc2c[nH]c3ccccc23)NC(=O)[C@H](Cc2ccccc2)NC(=O)[C@H](C)NC(=O)[C@H](CC(N)=O)NC(=O)[C@H](CCCCN)NC1=O (H-AGCKNAFWKTFTSC-NH2; disulfide 3-14) ?
Ans. 6.70

---

- tested on: Somatostatin receptor type 1 (Homo sapiens, UniProt P30872)
- Sequence (P30872 whole entry): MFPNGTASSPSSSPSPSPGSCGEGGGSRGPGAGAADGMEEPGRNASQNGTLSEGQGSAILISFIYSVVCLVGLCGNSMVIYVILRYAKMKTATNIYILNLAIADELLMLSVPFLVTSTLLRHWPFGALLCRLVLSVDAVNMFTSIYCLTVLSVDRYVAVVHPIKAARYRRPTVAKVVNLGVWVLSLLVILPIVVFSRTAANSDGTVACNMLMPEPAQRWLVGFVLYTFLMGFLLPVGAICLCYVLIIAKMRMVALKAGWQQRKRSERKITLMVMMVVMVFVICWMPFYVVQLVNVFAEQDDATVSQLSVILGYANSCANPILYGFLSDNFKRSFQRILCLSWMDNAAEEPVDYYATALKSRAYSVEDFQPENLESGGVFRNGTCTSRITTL
- measurement notes: Binding affinity towards human Somatostatin receptor type 1 (sst1) using Tyr11-[125I]-SRIF as radioligand was determined in CHO cells
Starred links: 1 amine or outer side, 2 acyl side, 3 side chain; linkers in the order of their positions; H or OH if unused. Positions of bridges follow the written chain, without caps; N, C: chain ends. Non-standard residues stand in square brackets, D forms with d. Residues, ends and D or L forms follow the SMILES beside them. Groups on a side chain read outwards from the residue. *: point of attachment. Ethylenediamine = C(CN[*:2])N[*:1]; Hyp = O=C(O)[C@@H]1C[C@@H](O)CN1; Phg = N[C@H](C(=O)O)c1ccccc1; CO = O=C([*:1])[*:2]; Bn = c1ccc(C*)cc1
Exercise: for every item that follows, state its recorded log10 Ki.
Heads up, the numbers here are log10 of Ki in nM units.

Go through the items and report each one's log10 Ki.
1. C[C@H](N)C(=O)NCC(=O)N[C@H]1CSSC[C@@H](C(N)=O)NC(=O)[C@H](CO)NC(=O)[C@H]([C@@H](C)O)NC(=O)[C@H](Cc2ccccc2)NC(=O)[C@H]([C@@H](C)O)NC(=O)[C@H](CCCCN)NC(=O)[C@H](Cc2c[nH]c3ccccc23)NC(=O)[C@H](C)NC(=O)[C@H](Cc2ccccc2)NC(=O)[C@H](CC(N)=O)NC(=O)[C@H](CCCCN)NC1=O (H-AGCKNFAWKTFTSC-NH2; disulfide 3-14)
2. CC(C)[C@@H]1NC(=O)[C@H](CCCCN)NC(=O)[C@@H](Cc2c[nH]c3ccccc23)NC(=O)[C@H](Cc2ccc(O)cc2)NC(=O)[C@@H](NC(=O)[C@H](N)Cc2ccccc2)CSSC[C@@H](C(=O)N[C@@H](Cc2c[nH]c3ccccc23)C(N)=O)NC1=O [VAPREOTIDE] (H-[dF]CY[dW]KVCW-NH2; disulfide 2-7)
3. NCCCC[C@@H]1NC(=O)[C@@H](Cc2c[nH]c3ccccc23)NC(=O)[C@H](c2ccccc2)NC(=O)[C@@H]2C[C@@H](OC(=O)NCCN)CN2C(=O)[C@H](Cc2ccccc2)NC(=O)[C@H](Cc2ccc(OCc3ccccc3)cc2)NC1=O [PASIREOTIDE] (cyclo(F[Hyp]([CO-Ethylenediamine])[Phg][dW]KY(Bn)))
4. C[C@H](N)C(=O)NCC(=O)N[C@H]1CSSC[C@@H](C(N)=O)NC(=O)[C@H](CO)NC(=O)[C@H]([C@@H](C)O)NC(=O)[C@H](Cc2ccccc2)NC(=O)[C@H]([C@@H](C)O)NC(=O)[C@H](C)NC(=O)[C@H](Cc2c[nH]c3ccccc23)NC(=O)[C@H](Cc2ccccc2)NC(=O)[C@H](Cc2ccccc2)NC(=O)[C@H](CC(N)=O)NC(=O)[C@H](CCCCN)NC1=O (H-AGCKNFFWATFTSC-NH2; disulfide 3-14)
5. C[C@H](N)C(=O)NCC(=O)N[C@H]1CSSC[C@@H](C(N)=O)NC(=O)[C@H](CO)NC(=O)[C@H]([C@@H](C)O)NC(=O)[C@H](Cc2ccccc2)NC(=O)[C@H]([C@@H](C)O)NC(=O)[C@H](CCCCN)NC(=O)[C@H](Cc2c[nH]c3ccccc23)NC(=O)[C@H](Cc2ccccc2)NC(=O)[C@H](Cc2ccccc2)NC(=O)[C@H](C)NC(=O)[C@H](CCCCN)NC1=O (H-AGCKAFFWKTFTSC-NH2; disulfide 3-14)
6. NCCCC[C@@H]1NC(=O)[C@@H](Cc2c[nH]c3ccccc23)NC(=O)[C@H](Cc2ccccc2)NC(=O)[C@@H]2C[C@@H](OC(=O)NCCN)CN2C(=O)[C@H](Cc2ccccc2)NC(=O)[C@H](Cc2ccc(OCc3ccccc3)cc2)NC1=O (cyclo(F[Hyp]([CO-Ethylenediamine])F[dW]KY(Bn)))

Ans.
1: 1.30; 2: 2.20; 3: 0.80; 4: 3.00; 5: -0.60; 6: 0.60

---

- tested on: Somatostatin receptor type 3 (Homo sapiens, UniProt P32745)
- measurement notes: Binding affinity towards human Somatostatin receptor type 3 (sst3) using Tyr11-[125I]-SRIF as radioligand was determined in CHO cells
Positions of bridges follow the written chain, without caps; N, C: chain ends. Non-standard residues stand in square brackets, D forms with d. Residues, ends and D or L forms follow the SMILES beside them.
endpoint label: pKi
One number for each entry, as −log10 of the molar value.

Qu. pKi for CC(C)[C@@H]1NC(=O)[C@H](CCCCN)NC(=O)[C@@H](Cc2c[nH]c3ccccc23)NC(=O)[C@H](Cc2ccc(O)cc2)NC(=O)[C@@H](NC(=O)[C@H](N)Cc2ccccc2)CSSC[C@@H](C(=O)N[C@@H](Cc2c[nH]c3ccccc23)C(N)=O)NC1=O [VAPREOTIDE] (H-[dF]CY[dW]KVCW-NH2; disulfide 2-7) ?
Ans. 7.70

Qu. pKi for NCCCC[C@@H]1NC(=O)[C@@H](Cc2c[nH]c3ccccc23)NC(=O)[C@H](CCCN=C(N)N)NC(=O)[C@@H]2C[C@@H](OC(=O)NCCN)CN2C(=O)[C@H](Cc2ccccc2)NC(=O)[C@H](Cc2ccc(OCc3ccccc3)cc2)NC1=O ?
Ans. 7.70

In the following, a different compound is considered.
Qu. pKi for C[C@H](N)C(=O)NCC(=O)N[C@H]1CSSC[C@@H](C(N)=O)NC(=O)[C@H](CO)NC(=O)[C@H](C)NC(=O)[C@H](Cc2ccccc2)NC(=O)[C@H]([C@@H](C)O)NC(=O)[C@H](CCCCN)NC(=O)[C@H](Cc2c[nH]c3ccccc23)NC(=O)[C@H](Cc2ccccc2)NC(=O)[C@H](Cc2ccccc2)NC(=O)[C@H](CC(N)=O)NC(=O)[C@H](CCCCN)NC1=O (H-AGCKNFFWKTFASC-NH2; disulfide 3-14) ?
Ans. 9.20

---

- tested on: Somatostatin receptor type 2 (Homo sapiens)
- Sequence (P30874 whole entry): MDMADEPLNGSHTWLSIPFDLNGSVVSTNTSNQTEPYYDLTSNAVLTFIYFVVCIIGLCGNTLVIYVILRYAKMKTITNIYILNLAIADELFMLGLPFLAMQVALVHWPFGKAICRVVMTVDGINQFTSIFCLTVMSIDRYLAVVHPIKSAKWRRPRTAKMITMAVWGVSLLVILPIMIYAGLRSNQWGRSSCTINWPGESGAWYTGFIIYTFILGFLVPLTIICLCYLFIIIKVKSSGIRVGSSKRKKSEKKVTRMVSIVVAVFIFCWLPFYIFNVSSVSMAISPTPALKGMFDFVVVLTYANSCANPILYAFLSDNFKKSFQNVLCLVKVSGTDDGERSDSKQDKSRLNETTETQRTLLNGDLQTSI
- measurement notes: Binding affinity towards human Somatostatin receptor type 2 (sst2) using Tyr11-[125I]-SRIF as radioligand was determined in CHO cells
Positions of bridges follow the written chain, without caps; N, C: chain ends. Residues, ends and D or L forms follow the SMILES beside them.
endpoint label: Ki (nM)
Give bare numbers, in nM.

Qu. Ki for C[C@H](N)C(=O)NCC(=O)N[C@H]1CSSC[C@@H](C(N)=O)NC(=O)[C@H](CO)NC(=O)[C@H](C)NC(=O)[C@H](Cc2ccccc2)NC(=O)[C@H]([C@@H](C)O)NC(=O)[C@H](CCCCN)NC(=O)[C@H](Cc2c[nH]c3ccccc23)NC(=O)[C@H](Cc2ccccc2)NC(=O)[C@H](Cc2ccccc2)NC(=O)[C@H](CC(N)=O)NC(=O)[C@H](CCCCN)NC1=O (H-AGCKNFFWKTFASC-NH2; disulfide 3-14) ?
Ans. 1.26
